B1: KAT8 regulatory NSL complex subunit 2, residues 28 to 91; numbered along this chain, Q9H9L4 (parent)
chain: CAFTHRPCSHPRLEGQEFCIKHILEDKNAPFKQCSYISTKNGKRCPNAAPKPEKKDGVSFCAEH

# Variants of: B1
# Measurement Protocol: abundance fitness (aPCA) (normalised: wild type 0, dead -1); higher = more abundant; growth selection in yeast, the domain comes from the species named
# Condition Summary: Homo sapiens
Property Measured: abundance fitness
Please give only the number in your answer, with no unit.

> print(dat)
                             query.sequence  property.measured  recorded.number
1  CAFTHRPCSHPRLEGQEFCIKHILEDKNAPFKQCSYISTKNGKRCPNAAPKPEKKDGCSFCAEH [V58C]  abundance fitness            0.012
2  MAFTHRPCSHPRLEGQEFCIKHILEDKNAPFKQCSYISTKNGKRCPNAAPKPEKKDGVSFCAEH [C1M]  abundance fitness           -0.576
3  CAFTHRPCSHPRLEGQEFCKKHILEDKNAPFKQCSYISTKNGKRCPNAAPKPEKKDGVSFCAEH [I20K]  abundance fitness           -0.195

Tell me the measured abundance fitness of CAFTHRPCSHPRLEGQEFCIKHILEDKNAPFKQCSYISTKNGKRCPNPAPKPEKKDGVSFCAEH [A48P] , please.
-0.079

# abundance fitness lookup, item CAFTHRPCSHPRLEGQEFCIKHILEDKNAPFKQCSYIPTKNGKRCPNAAPKPEKKDGVSFCAEH [S38P]
-0.028
